# key: entry, value: growth
- Tested on: HCT-116 colon
- method notes: NCI-60 one-dose screen, 48 h (100 = growth as untreated, 0 = no growth, -100 = all killed)
- reported conditions: 10 µM unless noted
This is part of a sample that, as a whole, favours compounds with a hit. Of some 83,000 tested, about 20% had one in any assay.
A number alone suffices; assume %.

Some solved entries appear below for comparison.
[
  {
    "structure": "O=[N+]([O-])c1ccc(Nc2nc(NCCN3CCOCC3)ncc2[N+](=O)[O-])cc1",
    "growth [%]": 88.1
  },
  {
    "structure": "CSc1nc(Nc2cccc(NC(=O)/C(C#N)=C/c3c(Cl)cccc3Cl)c2)c(C#N)c(-c2cccc([N+](=O)[O-])c2)n1",
    "growth [%]": 35.6
  },
  {
    "structure": "CCOc1ccc(-n2nc(C(=O)Nc3ccccc3)nc2-c2cc(OC)c(OC)c(OC)c2)cc1",
    "growth [%]": 21.2
  }
]

Form entry - test system: HCT-116 colon; read-out: growth; molecule: COc1ccc(/C=C/c2nc(-c3n[nH]c(=O)n3-c3ccccc3)c3ccccc3n2)cc1
104

----------
- Test system: A549/ATCC NSCLC
- method notes: NCI-60 one-dose screen, 48 h (100 = growth as untreated, 0 = no growth, -100 = all killed)
- reported conditions: 10 µM unless noted
- Method: Growth inhibition of the A549/ATCC human Non-Small Cell Lung tumor cell line is measured as a screen for anti-cancer activity. Cells are grown in 96 well plates and exposed to the test compound for 48 hours. Compounds are tested at a single concentration, which is 10^-5 M for most compounds. The reported endpoint is percent growth (GI% or GIPRCNT), where numbers from 0 - 100% represent growth inhibition, and numbers from -100% - 0 represent cell death. […]
This is part of a sample that, as a whole, favours compounds with a hit. Of some 83,000 tested, about 20% had one in any assay. Activity calls are given as the source filed them. The calls were made as follows: active = growth percent below 10; inactive = the rest.
measured metric: growth

Some solved entries appear below for comparison.
[
  {
    "molecule": "CC(C)c1c(C(=O)c2ccccc2)c(-c2ccccc2)c(-c2ccc(F)cc2)n1CC[C@@H](O)C[C@@H](O)CC(=O)O",
    "growth": "100% (inactive)"
  },
  {
    "molecule": "CCCOc1ccc2nc(NC(=O)OC)[nH]c2c1",
    "growth": "12.8% (inactive)"
  },
  {
    "molecule": "COc1ccc(/C=C(\\C#N)C(=O)Nc2cccc(Nc3nc(SC)nc(-c4cccc([N+](=O)[O-])c4)c3C#N)c2)cc1OC",
    "growth": "103% (inactive)"
  },
  {
    "molecule": "CC(C)n1c(/C=C/[C@@H](O)C[C@@H](O)CC(=O)O)c(-c2ccc(F)cc2)c2ccccc21",
    "growth": "61.3% (inactive)"
  },
  {
    "molecule": "CCCCN1CCCn2c1nc1c2c(=O)n(CCC)c(=O)n1CCC",
    "growth": "82.2% (inactive)"
  }
]

Entry CCN(CC)c1ccc2c(c1)Oc1nc(N)c(C#N)c(N)c1C2Sc1ccc(SC)cc1 (centres undefined) : reported growth = ?
-2.37% (active)

Entry O=c1c2c3c(sc2nc(N/N=C/c2cn(-c4ccccc4)nc2-c2ccc(Cl)cc2)n1Cc1ccccc1)CCCC3 : reported growth = ?
83.6% (inactive)

Entry CSc1nc(NCCN2CCOCC2)c(C#N)c(-c2cccc([N+](=O)[O-])c2)n1 : reported growth = ?
99.5% (inactive)

Entry O=C1Nc2cc(-c3ccc(O)cc3)ccc2/C1=C/c1ccc[nH]1 : reported growth = ?
9.14% (active)

Entry NCCNc1nc(Nc2ccc(-c3nc4ccccc4[nH]3)cc2)c2cn[nH]c2n1 : reported growth = ?
101% (inactive)

Entry Cn1cc(-c2nonc2-c2c[nH]c3ccccc23)c2cccnc21 : reported growth = ?
36.2% (inactive)

Entry O=[N+]([O-])c1ccc2c(c1)Cc1cc(F)ccc1-2 : reported growth = ?
88.5% (inactive)

Entry O=C1/C(=C/c2ccc(OCCCOc3ccc(Cl)cc3)cc2)N=C2SCCCN12 : reported growth = ?
73.4% (inactive)

The origin of these recorded values is PubChem BioAssay (NCI).
